# Assay Details: self-splicing fitness, log relative to wild type (ln ratio); higher = more splicing; Tetrahymena group I intron in knt gene, E. coli kanamycin selection, DiMSum; sequences stand for … in CUCUCU…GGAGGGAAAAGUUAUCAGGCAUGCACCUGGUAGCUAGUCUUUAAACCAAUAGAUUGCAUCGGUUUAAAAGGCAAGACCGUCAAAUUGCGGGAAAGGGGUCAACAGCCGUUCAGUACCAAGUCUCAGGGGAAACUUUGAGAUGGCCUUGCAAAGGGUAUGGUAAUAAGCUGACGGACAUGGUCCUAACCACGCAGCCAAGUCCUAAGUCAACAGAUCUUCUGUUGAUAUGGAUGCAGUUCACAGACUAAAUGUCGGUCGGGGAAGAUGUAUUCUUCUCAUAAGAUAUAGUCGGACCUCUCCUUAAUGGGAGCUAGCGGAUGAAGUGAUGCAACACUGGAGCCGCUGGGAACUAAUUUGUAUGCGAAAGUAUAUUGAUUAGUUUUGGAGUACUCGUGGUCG;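 further: selection with 25 µg/mL kanamycin versus none on LB agar overnight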
# Stated Conditions: 37 °C
Metric: self-splicing fitness (ln)
Answers are plain numbers.

# count of solved cases: 8
# Entry Sequence, self-splicing fitness (ln)
rows = [
    ("CUUAAGCAAUAUUACGUUCG", -0.0528),
    ("GCCUAGCAAUAUUACGAACG", -0.701),
    ("GCUAAGCAAUAUUACGCAUA", -1.5),
    ("CGGCAGCAAUAUUACGGUGC", -2.18),
    ("UGCAAGCAAUAUUACGCAGG", -3.48),
    ("GCUUAGCAAUAUUACGAAUU", -0.24),
    ("UCCAAGCAAUAUUACGUUCC", -1.57),
    ("GGGGAGCAAUAUUACGAACG", -1.11),
]

Field: next sequence
Entry `GGGCAGCAAUAUUACGGGCG` has what self-splicing fitness (ln)?
-0.0663

---

# Assay Details: self-splicing fitness, log relative to wild type (ln ratio); higher = more splicing; Tetrahymena group I intron in knt gene, E. coli kanamycin selection, DiMSum; sequences stand for … in CUCUCU…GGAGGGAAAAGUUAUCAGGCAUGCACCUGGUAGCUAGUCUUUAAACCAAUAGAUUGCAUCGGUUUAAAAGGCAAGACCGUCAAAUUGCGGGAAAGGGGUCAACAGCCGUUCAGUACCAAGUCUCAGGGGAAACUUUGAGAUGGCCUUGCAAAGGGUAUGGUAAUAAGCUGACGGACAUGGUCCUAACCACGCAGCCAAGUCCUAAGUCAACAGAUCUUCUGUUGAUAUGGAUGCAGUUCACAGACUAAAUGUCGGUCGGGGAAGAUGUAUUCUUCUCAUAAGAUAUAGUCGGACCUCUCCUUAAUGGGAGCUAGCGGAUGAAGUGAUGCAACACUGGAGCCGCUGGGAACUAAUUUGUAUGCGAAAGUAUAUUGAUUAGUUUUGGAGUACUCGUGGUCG
# Stated Conditions: 30 °C
Exercise: for every item that follows, state its recorded self-splicing fitness (ln).
Numbers only.

# count of solved cases: 8
# Entry Sequence, self-splicing fitness (ln)
measured = [
    ("GUGAAGCAAUAUUACGAGCA", 0.204),
    ("ACCGAGCAAUAUUACGGAGG", -3.01),
    ("AUCGAGCAAUAUUACGCUUU", -2.98),
    ("UCCUAGCAAUAUUACGCAGA", -1.87),
    ("ACAAAGCAAUAUUACGACGA", -0.436),
    ("GGUGAGCAAUAUUACGUGUA", -2.8),
    ("CCGCAGCAAUAUUACGCUUC", -4.17),
    ("CUGCAGCAAUAUUACGGGAU", -2.46),
]

Quick request: self-splicing fitness (ln) for each listed item, please.
1. UAAAAGCAAUAUUACGAGUC
2. UGACAGCAAUAUUACGCGAG
3. AGCCAGCAAUAUUACGGGAA

1. -3.45
2. -2.36
3. -2.59

---

# Assay Details: self-splicing fitness, log relative to wild type (ln ratio); higher = more splicing; Tetrahymena group I intron in knt gene, E. coli kanamycin selection, DiMSum; sequences stand for … in CUCUCU…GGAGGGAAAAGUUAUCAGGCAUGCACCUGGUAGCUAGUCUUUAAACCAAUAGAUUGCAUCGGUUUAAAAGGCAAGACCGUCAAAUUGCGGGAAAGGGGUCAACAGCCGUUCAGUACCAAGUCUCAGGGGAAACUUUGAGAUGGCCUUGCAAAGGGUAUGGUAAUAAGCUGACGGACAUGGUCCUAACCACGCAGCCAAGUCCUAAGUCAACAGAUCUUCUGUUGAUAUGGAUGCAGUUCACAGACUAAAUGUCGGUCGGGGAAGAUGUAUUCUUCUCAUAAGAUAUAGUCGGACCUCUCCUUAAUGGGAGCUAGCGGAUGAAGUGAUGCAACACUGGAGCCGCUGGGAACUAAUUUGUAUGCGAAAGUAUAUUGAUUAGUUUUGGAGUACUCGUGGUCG
# Stated Conditions: 37 °C
Metric: self-splicing fitness (ln)
Answers are plain numbers.

# count of solved cases: 2
# Entry Sequence, self-splicing fitness (ln)
measured = [
    ("GCAAAGCAAUAUUACGCCUC", -1.86),
    ("UCCCAGCAAUAUUACGACAG", -3.55),
]

Quick request: self-splicing fitness (ln) for each listed item, please.
1. CAUAAGCAAUAUUACGUGGG
2. GGGGAGCAAUAUUACGUUAC

-3.49
-1.07

Quick request: self-splicing fitness (ln) for each listed item, please.
1. CUUAAGCAAUAUUACGGUUA
2. UUCAAGCAAUAUUACGUACG

1. -2.16
2. -0.699

Entry `UCAAAGCAAUAUUACGGAAG` has what self-splicing fitness (ln)?
-2.38

---

# Assay Details: self-splicing fitness, log relative to wild type (ln ratio); higher = more splicing; Tetrahymena group I intron in knt gene, E. coli kanamycin selection, DiMSum; sequences stand for … in CUCUCU…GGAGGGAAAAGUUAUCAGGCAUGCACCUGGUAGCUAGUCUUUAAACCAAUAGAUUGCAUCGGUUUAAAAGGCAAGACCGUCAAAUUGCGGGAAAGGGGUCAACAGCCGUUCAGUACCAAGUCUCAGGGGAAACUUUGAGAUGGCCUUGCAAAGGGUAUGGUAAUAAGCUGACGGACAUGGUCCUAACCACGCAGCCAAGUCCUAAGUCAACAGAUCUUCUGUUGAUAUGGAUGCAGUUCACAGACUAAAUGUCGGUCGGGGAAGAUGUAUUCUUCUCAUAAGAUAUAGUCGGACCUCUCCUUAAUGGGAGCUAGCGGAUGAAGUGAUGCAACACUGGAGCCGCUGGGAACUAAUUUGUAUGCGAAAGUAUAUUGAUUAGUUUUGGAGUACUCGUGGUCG
# Stated Conditions: 37 °C
Record Y whenever self-splicing fitness (ln) is at -0.8 or higher; record N when lower.

Example entries and their recorded answers appear below.
# Entry Sequence, Group
records = [
    ("GCUUAGCAAUAUUACGAAGU", "N"),
    ("AAAAAGCAAUAUUACGCUAC", "N"),
    ("UUAAAGCAAUAUUACGAUUC", "Y"),
    ("GAAUAGCAAUAUUACGGGAA", "N"),
]

Hello, I need to know if `GUCUAGCAAUAUUACGUCAU` has measured self-splicing fitness (ln) not below -0.8. Thanks!
Y

---

# Assay Details: self-splicing fitness, log relative to wild type (ln ratio); higher = more splicing; Tetrahymena group I intron in knt gene, E. coli kanamycin selection, DiMSum; sequences stand for … in CUCUCU…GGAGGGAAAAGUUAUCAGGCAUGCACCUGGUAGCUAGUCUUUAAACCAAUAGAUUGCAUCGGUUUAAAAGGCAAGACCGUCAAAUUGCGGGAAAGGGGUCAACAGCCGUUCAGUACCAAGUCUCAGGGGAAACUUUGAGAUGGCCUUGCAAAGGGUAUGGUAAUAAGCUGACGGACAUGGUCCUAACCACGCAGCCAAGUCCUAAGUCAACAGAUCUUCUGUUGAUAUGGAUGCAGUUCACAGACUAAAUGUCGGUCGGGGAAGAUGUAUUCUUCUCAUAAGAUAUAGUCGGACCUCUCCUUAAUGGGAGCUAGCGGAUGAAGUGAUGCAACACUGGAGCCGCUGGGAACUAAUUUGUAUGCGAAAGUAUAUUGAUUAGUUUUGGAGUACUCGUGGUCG
# Stated Conditions: 37 °C
Record true whenever self-splicing fitness (ln) is at -0.8 or higher; record false when lower.

# Entry Sequence, Group
records = [
    ("GUCAAGCAAUAUUACGGCGU", "true"),
    ("GGGCAGCAAUAUUACGAGUG", "false"),
    ("CAUGAGCAAUAUUACGUUGA", "false"),
    ("CAUUAGCAAUAUUACGGGCA", "false"),
    ("UUGUAGCAAUAUUACGUCAA", "true"),
]

Continue with the sequence presented below.
Hello, I need to know if `AUAGAGCAAUAUUACGCCUC` has measured self-splicing fitness (ln) not below -0.8. Thanks!
false
